Assay Target: Beta-hexosaminidase (Homo sapiens)
Assay Notes: Mixed type inhibition of human placenta beta-N-acetylglucosaminidase by pNP-GlcNAc substrate hydrolysis assay
Endpoint: pKi
Recall that pKi is obtained by taking minus log10 of the concentration measured in molar.

Ask | Any idea what pKi came out for CC(=O)NC[C@H]1[C@H](O)[C@H](O)[C@@H]2[C@H](O)C[C@@H](CO)N21 on Beta-hexosaminidase (Homo sapiens)?
Reply | 8.90

----------
Assay Target: Beta-hexosaminidase (Homo sapiens)
Assay Notes: Inhibition of human placenta beta-N-acetylglucosaminidase by pNP-GlcNAc substrate hydrolysis assay
Endpoint: IC50 (nM)
Respond numerically; units are nM and should not be typed.

Ask | IC50 lookup needed for CC(=O)NC[C@H]1[C@H](O)[C@H](O)[C@@H]2[C@H](O)C[C@@H](CO)N21 , thanks.
Reply | 2.39
